# testSystem: recombinant Human Phosphodiesterase B2 (PDE4B2) (Homo sapiens)
# assayProcedure: Human Phosphodiesterase B2 Radiometric Assay (yttrium silicate SPA beads, [3H]cyclic AMP)
# Format: biochemical
# assayContext: recombinant human PDE4B2, radiometric SPA assay, 8 nM [3H]cyclic AMP; read-out: PDE4B2 pIC50 (converted)
measuredAttribute: IC50 (nM)

>>> quantitativeresult("O=C(N[C@H]1CC[C@@H](n2c(=O)c3cc(F)cnc3n(-c3cccc(-c4ccc(CN5CCN(C6CCCC6)CC5)cc4)c3)c2=O)CC1)c1cnccn1")
0.1
>>> quantitativeresult("O=C(N[C@H]1CC[C@@H](n2c(=O)c3cc(F)cnc3n(-c3cccc(-c4ccc(CN5CCCOCC5)cc4)c3)c2=O)CC1)c1ccc(OCCN2CCCC2)cc1")
2.51
>>> quantitativeresult("CN(C)C1(C(=O)N[C@H]2CC[C@@H](n3c(=O)c4cc(F)cnc4n(-c4cccc(-c5ccc(CN6CCN(CC(=O)N7CCOCC7)CC6)cc5)c4)c3=O)CC2)CC1")
0.0126

###

# testSystem: recombinant Human Phosphodiesterase B2 (PDE4B2) (Homo sapiens, UniProt Q07343)
# Sequence (Q07343 1-564 isoform Q07343-2): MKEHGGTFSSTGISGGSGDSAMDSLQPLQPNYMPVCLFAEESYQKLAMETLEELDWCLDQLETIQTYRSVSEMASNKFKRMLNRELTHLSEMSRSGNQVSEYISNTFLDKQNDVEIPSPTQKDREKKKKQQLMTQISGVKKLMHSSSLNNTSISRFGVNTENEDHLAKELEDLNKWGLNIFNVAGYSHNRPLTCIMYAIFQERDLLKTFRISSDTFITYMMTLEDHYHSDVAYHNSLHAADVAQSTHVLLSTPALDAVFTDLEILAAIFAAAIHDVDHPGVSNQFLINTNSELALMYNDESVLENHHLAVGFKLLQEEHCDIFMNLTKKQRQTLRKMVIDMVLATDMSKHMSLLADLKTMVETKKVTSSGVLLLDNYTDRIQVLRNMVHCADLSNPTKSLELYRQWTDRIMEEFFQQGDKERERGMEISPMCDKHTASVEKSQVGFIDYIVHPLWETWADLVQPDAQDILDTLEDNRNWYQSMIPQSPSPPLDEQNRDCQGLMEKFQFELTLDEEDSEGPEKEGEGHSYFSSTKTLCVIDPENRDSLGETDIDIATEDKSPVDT
# assayProcedure: Human Phosphodiesterase B2 Radiometric Assay (yttrium silicate SPA beads, [3H]cyclic AMP)
# Assay type: biochemical
# assayContext: recombinant human PDE4B2, radiometric SPA assay, 8 nM [3H]cyclic AMP; read-out: PDE4B2 pIC50 (converted)
measuredAttribute: IC50 (pM)

>>> quantitativeresult("O=C(N[C@H]1CC[C@@H](n2c(=O)c3cc(F)cnc3n(-c3cccc(-c4ccccc4CN4CCOCC4)c3)c2=O)CC1)C1(O)CC1")
398
>>> quantitativeresult("CN1CCN(CCc2ccc(-c3cccc(-n4c(=O)n([C@H]5CC[C@@H](NC(=O)c6cn7cc(F)ccc7n6)CC5)c(=O)c5cc(F)cnc54)c3)cc2)CC1")
7.94
>>> quantitativeresult("Cc1cccc2nc(CN[C@H]3CC[C@@H](n4c(=O)c5cc(F)cnc5n(-c5cccc(-c6ccc(O)cc6CN6CCOCC6)c5)c4=O)CC3)cn12")
7.94

###

IC50 overview
# testSystem: recombinant Human Phosphodiesterase B2 (PDE4B2) (Homo sapiens)
# assayProcedure: Human Phosphodiesterase B2 Radiometric Assay (yttrium silicate SPA beads, [3H]cyclic AMP)
# Format: biochemical
# assayContext: recombinant human PDE4B2, radiometric SPA assay, 8 nM [3H]cyclic AMP; read-out: PDE4B2 pIC50 (converted)
Where a name gives a salt, the structure may show the parent alone.
measuredAttribute: IC50 (pM)

>>> quantitativeresult("CC(C)NC(=O)CN1CCN(Cc2ccc(-c3cccc(-n4c(=O)n([C@H]5CC[C@@H](NC(=O)c6cn7c(n6)CCCC7)CC5)c(=O)c5cc(F)cnc54)c3)cc2)CC1 [Example 219]")
5.01
>>> quantitativeresult("O=C(N[C@H]1CC[C@@H](n2c(=O)c3cc(F)cnc3n(-c3cccc(-c4ccc(CN5CCOCC5)cc4)c3)c2=O)CC1)c1cn2c(n1)CCCC2 [Example 109]")
15.8
>>> quantitativeresult("CNCCNCc1ccc(-c2cccc(-n3c(=O)n([C@H]4CC[C@@H](NC(=O)c5cn6cc(F)ccc6n5)CC4)c(=O)c4cc(F)cnc43)c2)cc1 [Example 64]")
79.4
>>> quantitativeresult("O=C(CN1CCNCC1)N[C@H]1CC[C@@H](n2c(=O)c3cc(F)cnc3n(-c3cccc(-c4ccccc4)c3)c2=O)CC1 [Example 106]")
3160
>>> quantitativeresult("Cc1c(CN[C@H]2CC[C@@H](n3c(=O)c4cc(F)cnc4n(-c4cccc(-c5ccc(CN6CCN(C(C)C)CC6)cc5)c4)c3=O)CC2)ncn1Cc1ccccc1 [Example 263]")
1580
>>> quantitativeresult("CN(C)Cc1ccc(-c2cccc(-n3c(=O)n([C@H]4CC[C@@H](N)CC4)c(=O)c4cc(F)cnc43)c2)cc1 [Example 49]")
12600
>>> quantitativeresult("CC(C)N(CCO)Cc1ccc(-c2cccc(-n3c(=O)n([C@H]4CC[C@@H](NC(=O)c5cn6c(n5)CCCC6)CC4)c(=O)c4cc(F)cnc43)c2)cc1 [Example 121]")
158
>>> quantitativeresult("C[C@@H]1CN(Cc2ccc(-c3cccc(-n4c(=O)n([C@H]5CC[C@@H](NC(=O)c6cn7c(n6)CCCC7)CC5)c(=O)c5cc(F)cnc54)c3)cc2)C[C@H](C)O1 [Example 138]")
3.16
>>> quantitativeresult("O=c1c2cc(F)cnc2n(-c2cccc(-c3ccc(O)cc3CN3CC[C@@H](O)C3)c2)c(=O)n1[C@H]1CC[C@@H](NCc2cn3cc(F)ccc3n2)CC1 [Example 326]")
398
>>> quantitativeresult("CN(C)C1(C(=O)N[C@H]2CC[C@@H](n3c(=O)c4cc(F)cnc4n(-c4cccc(-c5ccc(CN6CCN(C7CCCC7)CC6)cc5)c4)c3=O)CC2)CC1 [Example 210]")
20
>>> quantitativeresult("CC(C)N1CCN(Cc2ccc(-c3cccc(-n4c(=O)n([C@H]5CC[C@@H](NC(=O)CN6CCCCC6)CC5)c(=O)c5cc(F)cnc54)c3)cc2)CC1 [Example 237]")
39.8
>>> quantitativeresult("O=C(N[C@H]1CC[C@@H](n2c(=O)c3cc(F)cnc3n(-c3cccc(-c4ccc(CN5CCC(N6CCCCC6)CC5)cc4)c3)c2=O)CC1)c1nc2ccccc2[nH]1 [Example 298]")
31.6
>>> quantitativeresult("CC(=O)N[C@H]1CC[C@@H](n2c(=O)c3cc(F)cnc3n(-c3cccc(-c4ccccc4CN4CCOCC4)c3)c2=O)CC1 [Example 62]")
316
>>> quantitativeresult("O=c1c2cc(F)cnc2n(-c2cccc(-c3ccc(O)cc3CN3CCOCC3)c2)c(=O)n1[C@H]1CC[C@@H](NCc2cccc(F)c2O)CC1 [Example 280]")
794
>>> quantitativeresult("O=C(N[C@H]1CC[C@@H](n2c(=O)c3cc(F)cnc3n(-c3cccc(-c4ccccc4CN4CCOCC4)c3)c2=O)CC1)c1ccccc1O [Example 63]")
79.4
>>> quantitativeresult("O=C(N[C@H]1CC[C@@H](n2c(=O)c3cc(F)cnc3n(-c3cccc(-c4ccc(OCCCN5CCOCC5)cc4)c3)c2=O)CC1)c1cn2cc(F)ccc2n1 [Example 81]")
6.31
>>> quantitativeresult("CC(C)(C)OC(=O)NCc1cccc(-c2cccc(-n3c(=O)n([C@H]4CC[C@@H](NC(=O)c5cn6cc(F)ccc6n5)CC4)c(=O)c4cc(F)cnc43)c2)c1 [Example 18]")
63.1
>>> quantitativeresult("Cc1cnc(C(=O)N[C@H]2CC[C@@H](n3c(=O)c4cc(F)cnc4n(-c4cccc(-c5ccc(CN6CCC(N7CCCCC7)CC6)cc5)c4)c3=O)CC2)cn1 [Example 297]")
31.6
>>> quantitativeresult("Cc1nc(C(=O)N[C@H]2CC[C@@H](n3c(=O)c4cc(F)cnc4n(-c4cccc(-c5ccc(CN6CCN(C(C)C)CC6)cc5)c4)c3=O)CC2)cs1 [Example 244]")
10
>>> quantitativeresult("CN(CCc1ccc(-c2cccc(-n3c(=O)n([C@H]4CC[C@@H](NC(=O)c5cn6cc(F)ccc6n5)CC4)c(=O)c4cc(F)cnc43)c2)cc1)C(C)(C)C [Example 101]")
100
>>> quantitativeresult("O=C(N[C@H]1CC[C@@H](n2c(=O)c3cc(F)cnc3n(-c3cccc(-c4ccccc4CN4CCOCC4)c3)c2=O)CC1)c1cn2cc(F)ccc2n1 [Example 19]")
3.16
>>> quantitativeresult("O=C(N[C@H]1CC[C@@H](n2c(=O)c3cc(F)cnc3n(-c3cccc(-c4ccc(O)cc4CN4CCNCC4)c3)c2=O)CC1)c1cn2cc(F)ccc2n1 [Example 72, trifluoroacetate salt]")
50.1
>>> quantitativeresult("CN1CCCN(Cc2ccc(-c3cccc(-n4c(=O)n([C@H]5CC[C@@H](NC(=O)CCN6CCCCC6)CC5)c(=O)c5cc(F)cnc54)c3)cc2)CC1 [Example 293]")
2000

###

# testSystem: recombinant Human Phosphodiesterase B2 (PDE4B2) (Homo sapiens, UniProt Q07343)
# assayProcedure: Human Phosphodiesterase B2 Radiometric Assay (yttrium silicate SPA beads, [3H]cyclic AMP)
# Format: biochemical
# assayContext: recombinant human PDE4B2, radiometric SPA assay, 8 nM [3H]cyclic AMP; read-out: PDE4B2 pIC50 (converted)
Form field: IC50 (one value per entry).
measuredAttribute: IC50 (nM)

>>> quantitativeresult("O=C(N[C@H]1CC[C@@H](n2c(=O)c3cc(F)cnc3n(-c3cccc(-c4ccc(O)cc4CN4CCOCC4)c3)c2=O)CC1)c1cn2cc(F)ccc2n1 [Example 103]")
0.00158
>>> quantitativeresult("O=C(N[C@H]1CC[C@@H](n2c(=O)c3cc(F)cnc3n(-c3cccc(-c4ccccc4O)c3)c2=O)CC1)c1cn2cc(F)ccc2n1 [Example 26]")
0.0501
>>> quantitativeresult("O=C1CCN(Cc2cc(O)ccc2-c2cccc(-n3c(=O)n([C@H]4CC[C@@H](NCc5cn6cc(F)ccc6n5)CC4)c(=O)c4cc(F)cnc43)c2)CCN1 [Example 375]")
0.0126
>>> quantitativeresult("Cc1cccc2nc(C(=O)N[C@H]3CC[C@@H](n4c(=O)c5cc(F)cnc5n(-c5cccc(-c6ccc(CN7CCCN(C)CC7)cc6)c5)c4=O)CC3)cn12 [Example 220]")
0.00794
>>> quantitativeresult("Cc1cc(C(=O)N[C@H]2CC[C@@H](n3c(=O)c4cc(F)cnc4n(-c4cccc(-c5ccc(CN6CCN(c7ccccn7)CC6)cc5)c4)c3=O)CC2)nn1C [Example 214]")
0.0251
>>> quantitativeresult("Cc1cc(C(=O)N[C@H]2CC[C@@H](n3c(=O)c4cc(F)cnc4n(-c4cccc(-c5ccc(CN6CCNCC6)cc5)c4)c3=O)CC2)nn1C [Example 228]")
0.0251
>>> quantitativeresult("O=C(N[C@H]1CC[C@@H](n2c(=O)c3cc(F)cnc3n(-c3cccc(-c4ccc(CN5CCNCC5)cc4)c3)c2=O)CC1)c1cn2cc(F)ccc2n1 [Example 54]")
0.0158
>>> quantitativeresult("Cc1c(CN[C@H]2CC[C@@H](n3c(=O)c4cc(F)cnc4n(-c4cccc(-c5ccc(O)cc5CN5CCOCC5)c4)c3=O)CC2)nc2ccccn12 [Example 336]")
0.0316
>>> quantitativeresult("O=c1c2cc(F)cnc2n(-c2cccc(-c3ccc(O)cc3CN3CCSCC3)c2)c(=O)n1[C@H]1CC[C@@H](NCc2cn3cc(F)ccc3n2)CC1 [Example 253]")
0.0158
>>> quantitativeresult("O=C(N[C@H]1CC[C@@H](n2c(=O)c3cc(F)cnc3n(-c3cccc(-c4ccc(CN5CCCNCC5)cc4)c3)c2=O)CC1)c1nc2ccccc2[nH]1 [Example 354]")
0.0398
>>> quantitativeresult("C[C@H](CO)N(C)Cc1cc(O)ccc1-c1cccc(-n2c(=O)n([C@H]3CC[C@@H](NCc4cn5cc(F)ccc5n4)CC3)c(=O)c3cc(F)cnc32)c1 [Example 319]")
0.631
>>> quantitativeresult("CC(C)N1CCN(Cc2ccc(-c3cccc(-n4c(=O)n([C@H]5CC[C@@H](NC(=O)C6CCCC6)CC5)c(=O)c5cc(F)cnc54)c3)cc2)CC1 [Example 236]")
0.126
